tested on: IMR90; test: Cell growth in liquid culture (alamarBlue); conditions: Homo sapiens, IMR-90, 72 h, read-out: IC50 (uM) Liquid culture
OBSERVED_PROPERTY: IC50

[ask] Which IC50 reading was recorded for the compound Cc1cc(/C=C/c2ccc3cc(N(C)C)ccc3[n+]2C)c(C)n1-c1ccccc1 [Example 1, Pyrvinium Phosphate] ?
[reply] 0.1 to 0.3 µM

====

tested on: HCT116; assay: Cell growth in soft agar culture (alamarBlue); conditions: Homo sapiens, HCT-116, 168 h, read-out: IC50 (uM) Soft agar
OBSERVED_PROPERTY: IC50

[ask] Entry Cc1cc(/C=C/c2ccc3cc(N(C)C)ccc3[n+]2C)c(C)n1-c1ccccc1 [Example 1, Pyrvinium Phosphate] , system HCT116: what IC50 was measured?
[reply] 0.1 to 0.3 µM

====

system: Pc3M/N; assay: Cell growth in soft agar culture (alamarBlue); conditions: Homo sapiens, PC-3M, 168 h, read-out: IC50 (uM) Soft agar
OBSERVED_PROPERTY: IC50

[ask] Which IC50 reading was recorded for the compound Cc1cc(/C=C/c2ccc3cc(N(C)C)ccc3[n+]2C)c(C)n1-c1ccccc1 [Example 1, Pyrvinium Phosphate] ?
[reply] ~0.3 µM

====

test system: CCD112/N; experiment: Cell growth in liquid culture (alamarBlue); settings: 72 h, read-out: IC50 (uM) Liquid culture
OBSERVED_PROPERTY: IC50

[ask] Which IC50 reading was recorded for the compound Cc1cc(/C=C/c2ccc3cc(N(C)C)ccc3[n+]2C)c(C)n1-c1ccccc1 [Example 1, Pyrvinium Phosphate] ?
[reply] ~1 µM

====

Kindly supply the reported EC50 values for the records listed here.
test system: Panc-1, HCT-116, Pc3M/N, HEPG2, ASPC1, or H460 cells; assay: Reduction of viable cell growth in glucose deprived media (liquid culture, alamarBlue); type: cell-based; conditions: concentration giving at least 50% reduction of viable cell growth

[ask] Entry CCOC(=O)c1c(/C=C/c2ccc3cc(N(C)C)ccc3[n+]2C)c(C)n(-c2ccccc2)c1C , system Panc-1, HCT-116, Pc3M/N, HEPG2, ASPC1, or H460 cells: what EC50 was measured?
[reply] < 1 µM

[ask] Entry CCCCn1c(C)c(C=O)c(/C=C/c2ccc3cc(C)ccc3[n+]2C)c1C , system Panc-1, HCT-116, Pc3M/N, HEPG2, ASPC1, or H460 cells: what EC50 was measured?
[reply] < 1 µM

[ask] Entry CCCCn1c(C)c(C=O)c(/C=C/c2ccc3cc(N4CCOCC4)ccc3[n+]2C)c1C , system Panc-1, HCT-116, Pc3M/N, HEPG2, ASPC1, or H460 cells: what EC50 was measured?
[reply] > 1 µM

[ask] Entry CCCCn1c(C)c(C=O)c(/C=C/c2ccc3cc(N(C)C)ccc3[n+]2C)c1C.CS(=O)(=O)[O-] , system Panc-1, HCT-116, Pc3M/N, HEPG2, ASPC1, or H460 cells: what EC50 was measured?
[reply] < 1 µM

[ask] Entry Cc1c(/C=C/c2ccc3cc(N(C)C)ccc3[n+]2C)cnn1-c1ccccc1 , system Panc-1, HCT-116, Pc3M/N, HEPG2, ASPC1, or H460 cells: what EC50 was measured?
[reply] > 1 µM

[ask] Entry COCCn1c(C)c(C=O)c(/C=C/c2ccc3cc(N(C)C)ccc3[n+]2C)c1C , system Panc-1, HCT-116, Pc3M/N, HEPG2, ASPC1, or H460 cells: what EC50 was measured?
[reply] < 1 µM

[ask] Entry Cc1cc(/C=C/c2ccc3cc(N(C)C)ccc3[n+]2C)cc(C)c1OCc1ccccc1.O=S(=O)([O-])C(F)(F)F , system Panc-1, HCT-116, Pc3M/N, HEPG2, ASPC1, or H460 cells: what EC50 was measured?
[reply] < 1 µM

[ask] Entry CN(C)c1ccc2c(ccc(/C=C/c3coc4ccccc4c3=O)[n+]2C)c1 , system Panc-1, HCT-116, Pc3M/N, HEPG2, ASPC1, or H460 cells: what EC50 was measured?
[reply] 1 µM

[ask] Entry CN(C)c1ccc2c(ccc(/C=C/c3ccc4oc(C(=O)c5ccc(Cl)cc5)cc4c3)[n+]2C)c1 , system Panc-1, HCT-116, Pc3M/N, HEPG2, ASPC1, or H460 cells: what EC50 was measured?
[reply] 1 µM

[ask] Entry Cc1cc(/C=C/c2ccc3cc(N4CCC(C)CC4)ccc3[n+]2C)c(C)n1-c1ccccc1 , system Panc-1, HCT-116, Pc3M/N, HEPG2, ASPC1, or H460 cells: what EC50 was measured?
[reply] 1 µM

[ask] Entry CCOC(=O)c1c(/C=C/c2ccc3cc(N(C)C)ccc3[n+]2C)c(C)n(Cc2cccs2)c1C , system Panc-1, HCT-116, Pc3M/N, HEPG2, ASPC1, or H460 cells: what EC50 was measured?
[reply] < 1 µM

[ask] Entry CN(C)c1ccc2c(ccc(/C=C/c3ccc(C#Cc4ccccc4)s3)[n+]2C)c1 , system Panc-1, HCT-116, Pc3M/N, HEPG2, ASPC1, or H460 cells: what EC50 was measured?
[reply] < 1 µM

[ask] Entry CN(C)c1ccc2c(ccc(/C=C/c3sccc3Oc3ccccc3)[n+]2C)c1 , system Panc-1, HCT-116, Pc3M/N, HEPG2, ASPC1, or H460 cells: what EC50 was measured?
[reply] < 1 µM

[ask] Entry COc1cc(/C=C/c2ccc3cc(N(C)C)ccc3[n+]2C)ccc1OCc1ccccc1 , system Panc-1, HCT-116, Pc3M/N, HEPG2, ASPC1, or H460 cells: what EC50 was measured?
[reply] < 1 µM

[ask] Entry CN(C)c1ccc2c(ccc(/C=C/c3ccc(Oc4ccccc4)cc3)[n+]2C)c1 , system Panc-1, HCT-116, Pc3M/N, HEPG2, ASPC1, or H460 cells: what EC50 was measured?
[reply] < 1 µM

[ask] Entry CN(C)c1ccc2c(ccc(/C=C/c3cccc(Oc4ccccc4)c3)[n+]2C)c1 , system Panc-1, HCT-116, Pc3M/N, HEPG2, ASPC1, or H460 cells: what EC50 was measured?
[reply] 1 µM

[ask] Entry CN(C)c1ccc2c(ccc(/C=C/c3cn(S(=O)(=O)c4ccccc4)c4ccccc34)[n+]2C)c1 , system Panc-1, HCT-116, Pc3M/N, HEPG2, ASPC1, or H460 cells: what EC50 was measured?
[reply] 1 µM

[ask] Entry CN(C)c1ccc2c(ccc(/C=C/c3ccc(-c4cc(C(F)(F)F)nn4C)s3)[n+]2C)c1 , system Panc-1, HCT-116, Pc3M/N, HEPG2, ASPC1, or H460 cells: what EC50 was measured?
[reply] 1 µM

[ask] Entry Cc1c(C=O)c(/C=C/c2ccc3cc(N(C)C)ccc3[n+]2C)c(C)n1-c1ccccc1 , system Panc-1, HCT-116, Pc3M/N, HEPG2, ASPC1, or H460 cells: what EC50 was measured?
[reply] < 1 µM

[ask] Entry CCOC(=O)c1c(/C=C/c2ccc3cc(N(C)C)ccc3[n+]2C)c(C)n(C2CC2)c1C , system Panc-1, HCT-116, Pc3M/N, HEPG2, ASPC1, or H460 cells: what EC50 was measured?
[reply] < 1 µM

[ask] Entry CN(C)c1ccc2c(ccc(/C=C/c3ccc(-c4ccccc4)s3)[n+]2C)c1 , system Panc-1, HCT-116, Pc3M/N, HEPG2, ASPC1, or H460 cells: what EC50 was measured?
[reply] 1 µM

[ask] Entry CN(C)c1ccc2c(ccc(/C=C/c3cccc(-c4cccs4)n3)[n+]2C)c1 , system Panc-1, HCT-116, Pc3M/N, HEPG2, ASPC1, or H460 cells: what EC50 was measured?
[reply] 1 µM

[ask] Entry Cc1cc(/C=C/c2ccc3cc(N(C)C)ccc3[n+]2C)oc1C , system Panc-1, HCT-116, Pc3M/N, HEPG2, ASPC1, or H460 cells: what EC50 was measured?
[reply] 1 µM

[ask] Entry CN(C)c1ccc2c(ccc(/C=C/c3ccc(OC(F)(F)F)cc3)[n+]2C)c1 , system Panc-1, HCT-116, Pc3M/N, HEPG2, ASPC1, or H460 cells: what EC50 was measured?
[reply] 1 µM

[ask] Entry CN(C)c1ccc2c(ccc(/C=C/c3cc(C(=O)c4ccc(F)cc4)cn3C)[n+]2C)c1.O=S(=O)([O-])C(F)(F)F , system Panc-1, HCT-116, Pc3M/N, HEPG2, ASPC1, or H460 cells: what EC50 was measured?
[reply] > 1 µM

[ask] Entry CCCCOc1ccc(/C=C/c2ccc3cc(N(C)C)ccc3[n+]2C)cc1.O=S(=O)([O-])C(F)(F)F , system Panc-1, HCT-116, Pc3M/N, HEPG2, ASPC1, or H460 cells: what EC50 was measured?
[reply] < 1 µM

[ask] Entry Cc1cc(/C=C/c2ccc3cc(N4CCOCC4)ccc3[n+]2C)c(C)n1-c1ccccc1 , system Panc-1, HCT-116, Pc3M/N, HEPG2, ASPC1, or H460 cells: what EC50 was measured?
[reply] 1 µM

[ask] Entry CN(C)c1ccc2c(ccc(/C=C/c3ccc(-c4nn(C)cc4C(F)(F)F)s3)[n+]2C)c1 , system Panc-1, HCT-116, Pc3M/N, HEPG2, ASPC1, or H460 cells: what EC50 was measured?
[reply] 1 µM

[ask] Entry CN(C)c1ccc2c(ccc(/C=C/c3ccc(OCc4ccccc4)cc3)[n+]2C)c1 , system Panc-1, HCT-116, Pc3M/N, HEPG2, ASPC1, or H460 cells: what EC50 was measured?
[reply] < 1 µM

[ask] Entry CCn1c2ccccc2c2cc(/C=C/c3ccc4cc(N(C)C)ccc4[n+]3C)ccc21 , system Panc-1, HCT-116, Pc3M/N, HEPG2, ASPC1, or H460 cells: what EC50 was measured?
[reply] < 1 µM

[ask] Entry CN(C)c1ccc2c(ccc(/C=C/c3ccc(OCc4ccsc4C#N)cc3)[n+]2C)c1 , system Panc-1, HCT-116, Pc3M/N, HEPG2, ASPC1, or H460 cells: what EC50 was measured?
[reply] < 1 µM

[ask] Entry CCCCn1c(C)c(C=O)c(/C=C/c2ccc3cc(Cl)ccc3[n+]2C)c1C , system Panc-1, HCT-116, Pc3M/N, HEPG2, ASPC1, or H460 cells: what EC50 was measured?
[reply] < 1 µM

[ask] Entry Cc1cc(/C=C/c2ccc3cc(N4CCCCC4)ccc3[n+]2C)c(C)n1-c1ccccc1 , system Panc-1, HCT-116, Pc3M/N, HEPG2, ASPC1, or H460 cells: what EC50 was measured?
[reply] 1 µM

[ask] Entry CCCCc1nc(/C=C/c2ccc3cc(N(C)C)ccc3[n+]2C)c(Cl)[nH]1 , system Panc-1, HCT-116, Pc3M/N, HEPG2, ASPC1, or H460 cells: what EC50 was measured?
[reply] > 1 µM
